Biological target: CDC34; also: test concentration or dose not given here
Test: reporter assay of Huesken 2005
Conditions: siRNA
Oligonucleotides are given in HELM: sugar(base)linkage, 5' to 3'; d 2'-deoxyribose, r ribose, m 2'-O-methylribose, p phosphate. ss, as = sense and antisense strand
OBSERVATION_TYPE: normalised inhibition (eCFP-eYFP dual reporter)
Answer shape: numeric part, then the unit.

RNA1{r(A)p.r(G)p.r(G)p.r(A)p.r(A)p.r(G)p.r(A)p.r(G)p.r(C)p.r(C)p.r(G)p.r(G)p.r(U)p.r(C)p.r(G)p.r(A)p.r(G)p.r(G)p.r(G)p.d(T)p.d(T)}|RNA2{r(C)p.r(C)p.r(C)p.r(U)p.r(C)p.r(G)p.r(A)p.r(C)p.r(C)p.r(G)p.r(G)p.r(C)p.r(U)p.r(C)p.r(U)p.r(U)p.r(C)p.r(C)p.r(U)p.d(G)p.d(C)}$$$RNA1{StrandType:ss}|RNA2{StrandType:as}$; 44.3%
RNA1{r(C)p.r(C)p.r(U)p.r(C)p.r(U)p.r(U)p.r(C)p.r(U)p.r(A)p.r(C)p.r(G)p.r(A)p.r(C)p.r(G)p.r(A)p.r(C)p.r(U)p.r(A)p.r(C)p.d(T)p.d(T)}|RNA2{r(G)p.r(U)p.r(A)p.r(G)p.r(U)p.r(C)p.r(G)p.r(U)p.r(C)p.r(G)p.r(U)p.r(A)p.r(G)p.r(A)p.r(A)p.r(G)p.r(A)p.r(G)p.r(G)p.d(T)p.d(C)}$$$RNA1{StrandType:ss}|RNA2{StrandType:as}$; 82.7%

API: the following record is the query input.
Query: Please supply the value of reported normalised inhibition (eCFP-eYFP dual reporter) for the item RNA1{r(C)p.r(A)p.r(G)p.r(G)p.r(U)p.r(C)p.r(C)p.r(U)p.r(G)p.r(G)p.r(G)p.r(G)p.r(A)p.r(C)p.r(C)p.r(A)p.r(A)p.r(G)p.r(G)p.d(T)p.d(T)}|RNA2{r(C)p.r(C)p.r(U)p.r(U)p.r(G)p.r(G)p.r(U)p.r(C)p.r(C)p.r(C)p.r(C)p.r(A)p.r(G)p.r(G)p.r(A)p.r(C)p.r(C)p.r(U)p.r(G)p.d(C)p.d(T)}$$$RNA1{StrandType:ss}|RNA2{StrandType:as}$
Response: 43%
